Reported IC50 values follow for various compounds
- tested.target: Blk (Homo sapiens, UniProt P51451)
- Construct: purchased Upstate 14-517
- Sequence (P51451 whole entry): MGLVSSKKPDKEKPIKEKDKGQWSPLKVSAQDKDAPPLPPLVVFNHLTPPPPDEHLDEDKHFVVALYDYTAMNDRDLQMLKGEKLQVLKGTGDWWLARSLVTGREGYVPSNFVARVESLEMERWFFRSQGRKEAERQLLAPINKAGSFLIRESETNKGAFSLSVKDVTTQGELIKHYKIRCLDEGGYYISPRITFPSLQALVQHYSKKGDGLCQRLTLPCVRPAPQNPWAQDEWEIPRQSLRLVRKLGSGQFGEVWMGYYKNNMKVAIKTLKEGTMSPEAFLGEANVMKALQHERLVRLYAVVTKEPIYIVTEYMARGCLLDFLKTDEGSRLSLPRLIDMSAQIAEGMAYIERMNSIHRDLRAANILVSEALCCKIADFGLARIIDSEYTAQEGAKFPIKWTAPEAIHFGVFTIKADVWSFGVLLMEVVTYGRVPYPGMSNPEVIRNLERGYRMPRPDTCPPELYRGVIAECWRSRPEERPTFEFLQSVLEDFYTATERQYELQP
- protocol.details: Blk kinase assay
- Type: biochemical
- applied.conditions: read-out: BLK Inhibition (IC50)
Structures can show the parent of a compound that is named as a salt.

COCCN1CCN(Cc2ccc(-c3n[nH]c4c3C(=O)c3c(NC(=O)NN5CCOCC5)cccc3-4)cc2)CC1 [Compound B16, dihydrochloride]
< 100 nM

Please look at the following compound next.
Challenge: Specify IC50 for `CC(C)N1CCN(C(=O)COc2ccc(-c3n[nH]c4c3C(=O)c3c(NC(=O)NN5CCOCC5)cccc3-4)cc2)CC1` and stop.
Response given: < 100 nM
